Tested on: LRRK2 (human), Q5S007 [G2019S]
Test: KINOMEscan competition binding
Settings: compound 10.0 µM
Please assign no (0) whenever kinase still bound, per cent of control is at or above 70%, and yes (1) whenever it is below.

Structure Notation | Class Label
O=C(Nc1cccc(Nc2ncc(Br)c(NCCc3cnc[nH]3)n2)c1)N1CCCC1 | yes (1)

// switching to the query compound
Given O=C(O)c1ccc(Nc2ncc3c(n2)-c2ccc(Cl)cc2C(c2c(F)cccc2F)=NC3)cc1 , is recorded kinase still bound, per cent of control strictly lower than 70%?
no (0)

====

Molecular target: HIPK1 (human) (UniProt Q86Z02)
Sequence (Q86Z02 whole entry, looked up): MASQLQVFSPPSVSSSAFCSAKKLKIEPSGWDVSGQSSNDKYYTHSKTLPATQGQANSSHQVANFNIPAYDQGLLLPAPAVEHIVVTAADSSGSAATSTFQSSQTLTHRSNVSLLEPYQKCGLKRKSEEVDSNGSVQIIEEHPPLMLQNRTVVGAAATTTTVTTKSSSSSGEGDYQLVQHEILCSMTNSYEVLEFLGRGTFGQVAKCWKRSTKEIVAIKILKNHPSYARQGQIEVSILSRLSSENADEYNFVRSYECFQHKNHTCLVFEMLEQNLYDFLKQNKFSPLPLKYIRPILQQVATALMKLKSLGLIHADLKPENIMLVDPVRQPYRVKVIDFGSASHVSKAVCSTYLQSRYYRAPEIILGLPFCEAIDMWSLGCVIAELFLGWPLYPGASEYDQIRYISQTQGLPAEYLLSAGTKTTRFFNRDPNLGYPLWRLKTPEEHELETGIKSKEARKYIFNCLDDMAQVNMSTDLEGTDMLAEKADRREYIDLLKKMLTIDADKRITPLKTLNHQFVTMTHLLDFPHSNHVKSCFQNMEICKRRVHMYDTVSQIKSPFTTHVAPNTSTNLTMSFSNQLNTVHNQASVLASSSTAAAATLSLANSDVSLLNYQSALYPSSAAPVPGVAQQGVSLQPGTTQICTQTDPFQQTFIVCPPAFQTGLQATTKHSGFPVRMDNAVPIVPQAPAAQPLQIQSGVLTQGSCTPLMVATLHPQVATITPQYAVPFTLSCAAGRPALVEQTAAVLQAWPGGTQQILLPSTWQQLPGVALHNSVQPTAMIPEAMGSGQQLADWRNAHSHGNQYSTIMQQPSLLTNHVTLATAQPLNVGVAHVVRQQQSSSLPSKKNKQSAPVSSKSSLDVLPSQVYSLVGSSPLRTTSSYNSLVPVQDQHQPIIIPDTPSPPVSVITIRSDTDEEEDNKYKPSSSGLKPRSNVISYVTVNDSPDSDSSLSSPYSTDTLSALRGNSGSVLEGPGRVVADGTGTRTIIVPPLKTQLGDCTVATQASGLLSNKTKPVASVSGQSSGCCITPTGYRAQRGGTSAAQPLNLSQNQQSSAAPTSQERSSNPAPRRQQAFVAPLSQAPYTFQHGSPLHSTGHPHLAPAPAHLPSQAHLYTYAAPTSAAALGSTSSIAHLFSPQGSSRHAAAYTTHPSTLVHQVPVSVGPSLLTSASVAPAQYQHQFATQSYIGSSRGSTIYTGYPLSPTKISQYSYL
Test: KINOMEscan competition binding
Settings: compound 10.0 µM
Kindly supply the reported kinase still bound, per cent of control values for the records listed here.
Numbers only, in %.

These recorded examples may help you get a feel for the data.
Molecule | kinase still bound, per cent of control [%]
COc1cc(C)c(Sc2cnc(NC(=O)c3ccc(CNC(C)C(C)C)cc3)s2)cc1C(=O)N1CCN(C(C)=O)CC1 (stereo not drawn) | 100
COc1cc2c(Nc3ccc(NC(=O)c4ccccc4)cc3)ncnc2cc1OCCCN1CCOCC1 | 14

// moving on: another record for kinase still bound, per cent of control
API: value(readout=kinase still bound, per cent of control, system=HIPK1 (human) (UniProt Q86Z02)) for record Cc1cn(-c2cc(C(=O)Nc3ccc(C)c(NC(=O)c4ccno4)c3)cc(C(F)(F)F)c2)cn1
100

====

Kindly supply the reported kinase still bound, per cent of control values for the records listed here.
Test system: FGFR3 (human), P22607 [G697C]
Sequence (P22607 whole entry G697C, looked up): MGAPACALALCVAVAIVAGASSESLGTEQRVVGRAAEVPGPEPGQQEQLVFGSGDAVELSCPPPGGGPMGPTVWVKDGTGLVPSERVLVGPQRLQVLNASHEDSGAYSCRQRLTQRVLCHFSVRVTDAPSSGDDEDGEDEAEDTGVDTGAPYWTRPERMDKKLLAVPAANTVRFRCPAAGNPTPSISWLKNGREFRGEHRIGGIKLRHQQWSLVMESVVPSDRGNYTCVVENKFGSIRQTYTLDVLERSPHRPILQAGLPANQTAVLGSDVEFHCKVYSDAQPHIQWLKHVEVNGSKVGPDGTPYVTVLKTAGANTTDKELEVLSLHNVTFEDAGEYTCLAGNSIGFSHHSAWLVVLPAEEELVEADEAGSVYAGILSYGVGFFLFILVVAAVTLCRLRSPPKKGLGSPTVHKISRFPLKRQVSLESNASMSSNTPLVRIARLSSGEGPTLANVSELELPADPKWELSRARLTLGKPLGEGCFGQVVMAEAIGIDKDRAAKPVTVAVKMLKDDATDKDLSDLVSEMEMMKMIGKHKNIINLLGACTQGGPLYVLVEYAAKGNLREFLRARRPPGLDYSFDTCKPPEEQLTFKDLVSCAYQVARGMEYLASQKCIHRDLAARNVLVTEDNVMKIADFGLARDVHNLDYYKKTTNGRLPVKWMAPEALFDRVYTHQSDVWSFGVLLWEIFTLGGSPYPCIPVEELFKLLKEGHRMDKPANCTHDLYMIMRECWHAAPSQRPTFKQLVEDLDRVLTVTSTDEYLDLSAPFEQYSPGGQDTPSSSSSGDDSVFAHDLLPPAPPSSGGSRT
Assay: KINOMEscan competition binding
Details: compound 10.0 µM
One number for each entry, in %.

Consider the following items and state reported kinase still bound, per cent of control for each.
1. CCOc1cc(N2CCC(O)CC2)ccc1Nc1ncc2c(n1)N(C)c1ccccc1C(=O)N2C
2. CCN(CCO)CCCOc1ccc2c(Nc3cc(CC(=O)Nc4cccc(F)c4)[nH]n3)ncnc2c1

1. 100
2. 100

Consider the following items and state reported kinase still bound, per cent of control for each.
1. CC1=C(C(=O)Nc2cc3cn[nH]c3cc2F)C(c2ccc(C(F)(F)F)cc2)CC(=O)N1 (stereo not drawn)
2. COc1ccc(N(C(=O)Oc2cc(C(=O)Nc3cccc(C(F)(F)F)c3)ccc2C)c2ccnc(Nc3ccc(N4CCN(C)CC4)cc3)n2)c(OC)c1
3. NC(=O)Nc1cc(-c2cccc(F)c2)sc1C(=O)N[C@@H]1CCCNC1
4. COc1ccc(N(C(=O)Oc2c(C)cccc2C)c2ccnc(Nc3ccc(N4CCN(C)CC4)cc3)n2)c(OC)c1
5. CCN1CCN(Cc2ccc(NC(=O)c3ccc(C)c(/C=C/c4cnc5[nH]ccc5c4OC)c3)cc2C(F)(F)F)CC1

1: 84; 2: 8.6; 3: 22; 4: 2.6; 5: 2.5

API: value(readout=kinase still bound, per cent of control, system=FGFR3 (human), P22607 [G697C]) for record Cc1cn(-c2cc(C(=O)Nc3ccc(C)c(NC(=O)c4ccno4)c3)cc(C(F)(F)F)c2)cn1
100

====

System: KIT (human), P10721 [D816H]
Sequence (P10721 whole entry D816H, looked up): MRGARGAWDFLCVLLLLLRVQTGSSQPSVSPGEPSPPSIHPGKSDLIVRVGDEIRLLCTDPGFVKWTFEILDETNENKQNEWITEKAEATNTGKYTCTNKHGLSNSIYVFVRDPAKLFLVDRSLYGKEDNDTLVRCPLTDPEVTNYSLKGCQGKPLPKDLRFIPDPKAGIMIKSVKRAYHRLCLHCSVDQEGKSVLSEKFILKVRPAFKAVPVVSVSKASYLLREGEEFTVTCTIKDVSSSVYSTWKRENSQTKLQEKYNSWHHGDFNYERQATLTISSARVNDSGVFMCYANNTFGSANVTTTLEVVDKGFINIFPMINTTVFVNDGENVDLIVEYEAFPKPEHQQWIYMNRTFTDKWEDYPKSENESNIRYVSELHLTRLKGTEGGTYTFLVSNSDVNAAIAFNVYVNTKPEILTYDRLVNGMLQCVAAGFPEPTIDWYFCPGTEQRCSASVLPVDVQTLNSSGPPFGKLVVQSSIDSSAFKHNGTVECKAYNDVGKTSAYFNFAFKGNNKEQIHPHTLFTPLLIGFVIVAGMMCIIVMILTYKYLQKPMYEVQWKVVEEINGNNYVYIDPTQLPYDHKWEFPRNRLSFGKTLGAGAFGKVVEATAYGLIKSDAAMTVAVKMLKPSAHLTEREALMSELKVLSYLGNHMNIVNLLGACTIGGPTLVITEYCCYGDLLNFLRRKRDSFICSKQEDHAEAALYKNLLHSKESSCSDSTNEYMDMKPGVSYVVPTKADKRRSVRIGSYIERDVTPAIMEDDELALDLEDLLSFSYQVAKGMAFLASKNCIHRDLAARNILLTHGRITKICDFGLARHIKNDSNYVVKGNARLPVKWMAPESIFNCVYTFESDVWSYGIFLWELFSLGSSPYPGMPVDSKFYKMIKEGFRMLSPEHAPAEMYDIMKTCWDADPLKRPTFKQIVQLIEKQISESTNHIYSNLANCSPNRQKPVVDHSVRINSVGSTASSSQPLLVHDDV
Assay: KINOMEscan competition binding
Settings: compound 10.0 µM
Measured Quantity: kinase still bound, per cent of control (%)
Answers are plain numbers, in %.

Consider the following items and state reported kinase still bound, per cent of control for each.
1. CC1=C(C(=O)Nc2cc3cn[nH]c3cc2F)C(c2ccc(C(F)(F)F)cc2)CC(=O)N1 (configuration not stated)
2. COc1cc2ncnc(Nc3cccc(Cl)c3)c2cc1OC
3. CC(=O)c1c(C)c2cnc(Nc3ccc(N4CCNCC4)cn3)nc2n(C2CCCC2)c1=O
4. CCCS(=O)(=O)Nc1ccc(F)c(C(=O)c2c[nH]c3ncc(Cl)cc23)c1F
5. O=c1cc(N2CCOCC2)oc2c(-c3cccc4c3sc3ccccc34)cccc12
6. COc1cc2c(Nc3ccc(NC(=O)c4ccccc4)cc3)ncnc2cc1OCCCN1CCOCC1
7. N#Cc1cc(-c2ccnc(Nc3ccc(-n4cnc(-c5cccnc5)n4)cc3)n2)cc(N2CCOCC2)c1
8. O=c1[nH]c2ccccc2n1C1CCN(Cc2ccc(-c3nc4cc5[nH]cnc5cc4nc3-c3ccccc3)cc2)CC1

[69, 59, 56, 93, 100, 69, 50, 100]

====

Kindly supply the reported kinase still bound, per cent of control values for the records listed here.
Target: MAPKAPK5 (human)
Assay: KINOMEscan competition binding
Settings: compound 10.0 µM
One number for each entry, in %.

Consider the following items and state reported kinase still bound, per cent of control for each.
1. N#C/C(=C1/Nc2ccccc2S1)c1ccnc(NCCc2cccnc2)n1
2. CCOc1cc(N2CCC(O)CC2)ccc1Nc1ncc2c(n1)N(C)c1ccccc1C(=O)N2C
3. COc1cc(N2CCC(C(N)=O)CC2)ccc1Nc1nc(N)c(Cl)c(Nc2ccccc2S(=O)(=O)C(C)C)n1
4. COc1ccc(N(C(=O)Oc2cc(C(=O)Nc3cccc(C(F)(F)F)c3)ccc2C)c2ccnc(Nc3ccc(N4CCN(C)CC4)cc3)n2)c(OC)c1
5. CCN(CCO)CCCOc1ccc2c(Nc3cc(CC(=O)Nc4cccc(F)c4)[nH]n3)ncnc2c1
6. O=c1[nH]c2ccccc2n1C1CCN(Cc2ccc(-c3nc4cc5[nH]cnc5cc4nc3-c3ccccc3)cc2)CC1
7. C=CC(=O)Nc1ccc(C(=O)c2sc(Nc3ccc(N4CCN(C)CC4)cc3OC)nc2N)cc1
8. Cc1cn(-c2cc(C(=O)Nc3ccc(C)c(NC(=O)c4ccno4)c3)cc(C(F)(F)F)c2)cn1

100
100
100
100
100
59
14
100

Consider the following items and state reported kinase still bound, per cent of control for each.
1. N#Cc1cc(-c2ccnc(Nc3ccc(-n4cnc(-c5cccnc5)n4)cc3)n2)cc(N2CCOCC2)c1
2. CCCS(=O)(=O)Nc1ccc(F)c(C(=O)c2c[nH]c3ncc(Cl)cc23)c1F
3. CCc1nc(-c2cccc(C)c2)c(-c2ccnc(NC(=O)c3ccccc3)c2)s1
4. COc1cc2ncnc(Nc3cccc(Cl)c3)c2cc1OC
5. CCN1CCN(Cc2ccc(NC(=O)c3ccc(C)c(/C=C/c4cnc5[nH]ccc5c4OC)c3)cc2C(F)(F)F)CC1

1: 100; 2: 100; 3: 100; 4: 9.9; 5: 90

====

Kindly supply the reported kinase still bound, per cent of control values for the records listed here.
Target: PTK6 (human)
Test: KINOMEscan competition binding
Conditions: compound 10.0 µM
One number for each entry, in %.

Molecule | kinase still bound, per cent of control, %
COc1cc2ncnc(Nc3cccc(Cl)c3)c2cc1OC | 58
CCN1CCN(Cc2ccc(NC(=O)c3ccc(C)c(/C=C/c4cnc5[nH]ccc5c4OC)c3)cc2C(F)(F)F)CC1 | 9.6
C=CC(=O)Nc1ccc(C(=O)c2sc(Nc3ccc(N4CCN(C)CC4)cc3OC)nc2N)cc1 | 80
N#Cc1cc(-c2ccnc(Nc3ccc(-n4cnc(-c5cccnc5)n4)cc3)n2)cc(N2CCOCC2)c1 | 100
O=c1[nH]c2ccccc2n1C1CCN(Cc2ccc(-c3nc4cc5[nH]cnc5cc4nc3-c3ccccc3)cc2)CC1 | 100
CC1=C(C(=O)Nc2cc3cn[nH]c3cc2F)C(c2ccc(C(F)(F)F)cc2)CC(=O)N1 (stereo not drawn) | 60
CNC(=O)Nc1ccc(-c2nc(N3CC4CCC(C3)O4)c3cnn(C4CCC5(CC4)OCCO5)c3n2)cc1 | 55

// moving on: another record for kinase still bound, per cent of control
Reported kinase still bound, per cent of control for CCOc1cc(N2CCC(O)CC2)ccc1Nc1ncc2c(n1)N(C)c1ccccc1C(=O)N2C : what is it?
100

====

Biological target: CLK3 (human)
Test: KINOMEscan competition binding
Conditions: compound 10.0 µM
Measured Quantity: kinase still bound, per cent of control (%)
One number for each entry, in %.

Molecule | kinase still bound, per cent of control / %
COc1cc(C)c(Sc2cnc(NC(=O)c3ccc(CNC(C)C(C)C)cc3)s2)cc1C(=O)N1CCN(C(C)=O)CC1 (centres undefined) | 19
CCN1CCN(Cc2ccc(NC(=O)c3ccc(C)c(/C=C/c4cnc5[nH]ccc5c4OC)c3)cc2C(F)(F)F)CC1 | 100
COc1cc2c(Nc3ccc(NC(=O)c4ccccc4)cc3)ncnc2cc1OCCCN1CCOCC1 | 100
CC(=O)c1c(C)c2cnc(Nc3ccc(N4CCNCC4)cn3)nc2n(C2CCCC2)c1=O | 55

Consider the following items and state reported kinase still bound, per cent of control for each.
1. CCCS(=O)(=O)Nc1ccc(F)c(C(=O)c2c[nH]c3ncc(Cl)cc23)c1F
2. CNC(=O)Nc1ccc(-c2nc(N3CC4CCC(C3)O4)c3cnn(C4CCC5(CC4)OCCO5)c3n2)cc1
3. CC1=C(C(=O)Nc2cc3cn[nH]c3cc2F)C(c2ccc(C(F)(F)F)cc2)CC(=O)N1 (centres undefined)

[80, 31, 65]

Consider the following items and state reported kinase still bound, per cent of control for each.
1. CCN(CCO)CCCOc1ccc2c(Nc3cc(CC(=O)Nc4cccc(F)c4)[nH]n3)ncnc2c1
2. CCc1nc(-c2cccc(C)c2)c(-c2ccnc(NC(=O)c3ccccc3)c2)s1

1. 100
2. 78

The reported measurements were obtained from the kinase profiling compilation of Christmann-Franck et al. (2016).
